# assay-protocol: Solubility of clofazimine in fatty acids
# Type: physicochemical
# settings: fatty acid, 25 °C, organic solvent or mixture, Butyric acid
value-type: solubility (mg/mL)

> print(dat)
                            smiles.notation  value.type  experimental.value
1  CC(C)/N=c1\cc2n(-c3ccc(Cl)cc3)c3ccccc3nc-2cc1Nc1ccc(Cl)cc1  solubility                49.2

* * *

# assay-protocol: Solubility of clofazimine in fatty acids
# Assay type: physicochemical
# settings: fatty acid, 25 °C, organic solvent or mixture, Isovaleric acid
value-type: solubility (mg/mL)

> print(dat)
                                   compound  units.label  experimental.value
1  CC(C)/N=c1\cc2n(-c3ccc(Cl)cc3)c3ccccc3nc-2cc1Nc1ccc(Cl)cc1 [Clofazimine]        mg/mL                58.6

* * *

# assay-protocol: Solubility of clofazimine in various solvents
# settings: solvent, 25 °C, organic solvent or mixture, thermodynamic from solid, Solubility, Glycerol
value-type: solubility at 24 h (mg/mL)

> print(dat)
                            smiles.notation          value.type  units.label  experimental.value
1  CC(C)/N=c1\cc2n(-c3ccc(Cl)cc3)c3ccccc3nc-2cc1Nc1ccc(Cl)cc1  solubility at 24 h        mg/mL                0.49

* * *

# assay-protocol: Solubility of clofazimine in fatty acids
# Format: physicochemical
# settings: fatty acid, 25 °C, oil or lipid, Oleic acid
value-type: solubility (mg/mL)

> print(dat)
                                   compound  experimental.value
1  CC(C)/N=c1\cc2n(-c3ccc(Cl)cc3)c3ccccc3nc-2cc1Nc1ccc(Cl)cc1 [Clofazimine]                 106

* * *

# assay-protocol: Solubility of clofazimine in various solvents
# settings: solvent, 25 °C, organic solvent or mixture, thermodynamic from solid, Solubility, Polyoxyethylene hydrogenated castor oil
value-type: solubility at 24 h (µg/mL)

> print(dat)
                            smiles.notation          value.type  units.label  experimental.value
1  CC(C)/N=c1\cc2n(-c3ccc(Cl)cc3)c3ccccc3nc-2cc1Nc1ccc(Cl)cc1  solubility at 24 h        µg/mL                8670

* * *

# assay-protocol: Solubility of clofazimine in fatty acids
# Assay type: physicochemical
# settings: fatty acid, 25 °C, oil or lipid, Linoleic acid
value-type: solubility (mg/mL)

> print(dat)
                            smiles.notation  units.label  experimental.value
1  CC(C)/N=c1\cc2n(-c3ccc(Cl)cc3)c3ccccc3nc-2cc1Nc1ccc(Cl)cc1        mg/mL                90.2

* * *

# assay-protocol: Solubility of clofazimine in various solvents
# settings: solvent, 25 °C, organic solvent or mixture, thermodynamic from solid, Solubility, PEG 400, 25° C.
value-type: solubility at 24 h (µg/mL)

> print(dat)
                            smiles.notation          value.type  experimental.value
1  CC(C)/N=c1\cc2n(-c3ccc(Cl)cc3)c3ccccc3nc-2cc1Nc1ccc(Cl)cc1  solubility at 24 h                9510

The measured values listed here are drawn from patent US20230128252A1.
